This collection of values is drawn from patent US7160888B2.

Emax at 1 µM for assorted compounds
target: D2 receptor (Homo sapiens, UniProt P14416); experiment: [3H]Thymidine uptake assay for D2 intrinsic activity; type: cell-based; conditions: Table 1; test compound 1 μM; 1 μM Quinpirole = 100% intrinsic activity
Sequence (P14416 whole entry): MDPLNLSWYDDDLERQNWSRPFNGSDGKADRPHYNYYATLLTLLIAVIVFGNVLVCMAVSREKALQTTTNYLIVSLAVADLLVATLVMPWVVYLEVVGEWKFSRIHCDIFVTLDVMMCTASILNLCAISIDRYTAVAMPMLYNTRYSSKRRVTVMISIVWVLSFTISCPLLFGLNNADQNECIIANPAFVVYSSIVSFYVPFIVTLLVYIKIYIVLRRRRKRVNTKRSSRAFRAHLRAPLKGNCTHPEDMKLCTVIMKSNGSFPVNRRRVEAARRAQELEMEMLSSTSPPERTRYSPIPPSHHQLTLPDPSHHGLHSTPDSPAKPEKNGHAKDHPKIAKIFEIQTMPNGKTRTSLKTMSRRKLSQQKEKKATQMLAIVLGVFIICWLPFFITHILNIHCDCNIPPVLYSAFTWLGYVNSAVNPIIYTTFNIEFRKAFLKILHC

CC(=O)c1ccc(N2CCN(CCCCOc3ccc4c(n3)NC(=O)CC4)CC2)c2ccccc12 :: 4%

Challenge: In one line, give reported Emax at 1 µM of the entry CC1(C)C(=O)Nc2nc(OCCCCN3CCN(c4cccc(Cl)c4Cl)CC3)ccc2C1O (centres unmarked) .
Response given: 25%

Challenge: In one line, give reported Emax at 1 µM of the entry "COc1ccc2cccc(N3CCN(CCCCOc4ccc5c(n4)NC(=O)CC5)CC3)c2c1" .
Response given: 23%

Challenge: In one line, give reported Emax at 1 µM of the entry "O=C1CCc2ccc(OCCCCN3CCN(c4ccccc4)CC3)nc2N1" .
Response given: 56%

Challenge: In one line, give reported Emax at 1 µM of the entry "O=C1NCc2ccc(OCCCCN3CCN(c4cccc5ccc(F)cc45)CC3)nc2N1" .
Response given: 32%

Challenge: In one line, give reported Emax at 1 µM of the entry "COc1ccc2c(N3CCN(CCCCOc4ccc5ccc(=O)[nH]c5n4)CC3)cccc2c1" .
Response given: 18%

Challenge: In one line, give reported Emax at 1 µM of the entry "O=c1ccc2ccc(OCCCCN3CCN(c4cccc5c(F)cccc45)CC3)nc2[nH]1" .
Response given: 36%

Challenge: In one line, give reported Emax at 1 µM of the entry "Cc1cc(C)nc(N2CCN(CCCCCc3ccc4c(n3)NC(=O)CC4)CC2)c1" .
Response given: 13%

Challenge: In one line, give reported Emax at 1 µM of the entry "O=C1CCc2ccc(OCCCCN3CCN(c4cccc5c4CCCCC5)CC3)nc2N1" .
Response given: 4%
